assay.info: ATG_Sox_CIS: Attagene CIS-FACTORIAL HepG2 Assay for human SRY-box transcription factor (SOX) (AID 2282960)
run.parameters: HepG2 Attagene cis-factorial SOX reporter, mRNA; actives raise or lower the signal
Active and inactive are the calls of the source. The calls were made as follows: active = hit-call score of the fitted dose curve at least 0.9, where 1 is the maximum; inactive = score below 0.9.
readout.type: outcome

Check out these entries, answers already filled in.
O=C(O)Cc1ccccc1Nc1c(Cl)cccc1Cl ... inactive
CNC(=O)[C@H]1O[C@@H](n2cnc3c(NCc4cc(Cl)ccc4OCc4cc(C)no4)ncnc32)[C@H](O)[C@@H]1N ... inactive
CN[C@H]1CC[C@@H](c2ccc(Cl)c(Cl)c2)c2ccc(S(N)(=O)=O)cc21 ... inactive
Cc1oc(-c2ccccc2)nc1CCOc1cccc2c1ccn2CCC(=O)O ... inactive
CC(=O)OC/C=C(\C)CCC=C(C)C ... inactive

// each compound listed below needs its outcome
1. CCCCOC(=O)CCCCCCCCC(=O)OCCCC
2. Cc1nc(C)nc(N2C[C@@H](C)N(c3ccnc([C@@H](C)O)n3)[C@@H](C)C2)n1
3. CC(=O)Oc1ccccc1C(=O)O
4. O=c1[nH]cc(F)c(=O)[nH]1
5. C[Si]1(C)O[Si](C)(C)O[Si](C)(C)O[Si](C)(C)O1

1: inactive; 2: inactive; 3: inactive; 4: inactive; 5: inactive

Which outcome value belongs to Nc1ccc2c(c1)C(=O)c1ccccc1C2=O ?
inactive
